Assay: NCI Yeast Anticancer Drug Screen. Data for the sgs1 mgt1 strain (AID 161);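 also: 0% = growth of cultures given vehicle only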
Details: S. cerevisiae sgs1 mgt1 strain, at 50.0 µM
About 79,000 compounds went through this panel and 15% of them were active in at least one assay; those are over-represented in the sample as a whole. Calls of active or inactive are those of the source. Rule as the data show it: active = growth inhibition above about 70%; inactive = the rest.
Possible outcomes: label 1 for active, label 0 for inactive

* CC(=O)OCC12CCC(C)=CC1OC1C(O)C(OC(C)=O)C2(C)C12CO2 (stereo unspecified) | label 1
* CC(=O)O[C@H]1CCC2[C@@H]3CCC4c5nonc5CC[C@]4(C)C3CC[C@@]21C (stereo partly specified) | label 0
* CC(=O)C1(c2ccccc2)CCNCC1 | label 0
* O=C1NC(=S)NC(=O)C1=Cc1ccc(-c2ccccc2)cc1 | label 0
* O=C1NN(c2ccccc2)C(=O)C1c1ccccc1 (stereo unspecified) | label 0
* [CH3][Sn]([CH3])([Cl])[S]CCN | label 0
